test system: DIV14; assay: qHTS profiling for inhibitors of Plasmodium falciparum proliferation (AID 504749); note: nearly all actives have a fitted effect of over 60% in size; details: P. falciparum in erythrocytes, SYBR Green DNA, 72 h; series mostly up to 28.7 µM
Inconclusive results are not listed. Activity calls are given as the source filed them. Calls come from the whole dose curve; as a rule, active = well fitted inhibition curve with a large enough effect; inconclusive = small, poorly fitted or top-dose-only effect; inactive = flat fitted curve, though single readings scatter.
Thanks in advance; please answer with one of these: 1 (yes) = active, 0 (no) = inactive

As a guide, the following entries are already answered.
{"COMPOUND": "O=C1NCN(c2ccccc2)C12CCN(CCCC(c1ccc(F)cc1)c1ccc(F)cc1)CC2", "CLASS LABEL": "1 (yes)"}
{"COMPOUND": "CCCCCN(CCCCC)C(=O)C(CCC(=O)O)NC(=O)c1ccc(Cl)c(Cl)c1 (centres undefined)", "CLASS LABEL": "0 (no)"}
{"COMPOUND": "CCn1ccnc1CC1COc2ccccc2O1 (centres undefined)", "CLASS LABEL": "0 (no)"}

Now for a further compound.
Hi team, can someone confirm the assay call for NC(=O)c1ncn([C@@H]2O[C@H](CO)[C@@H](O)[C@H]2O)c1O ?
0 (no)

---

system: DIV17; assay: qHTS profiling for inhibitors of Plasmodium falciparum proliferation (AID 504749); note: nearly all actives have a fitted effect of over 60% in size; conditions: P. falciparum in erythrocytes, SYBR Green DNA, 72 h; series mostly up to 28.7 µM
Results filed as inconclusive are left out. Active and inactive are the calls of the source. The call rests on the fitted dose curve; in most records, active means well fitted inhibition curve with a large enough effect; inconclusive means small, poorly fitted or top-dose-only effect; inactive means flat fitted curve, though single readings scatter.
Thanks in advance; please answer with one of these: active, inactive

{"COMPOUND": "Cc1ccc(S(=O)(=O)NC(=O)NN2CCCCCC2)cc1", "CLASS LABEL": "inactive"}

Hi team, can someone confirm the assay call for NC(=O)c1ncn([C@@H]2O[C@H](CO)[C@@H](O)[C@H]2O)c1O ?
inactive

Hi team, can someone confirm the assay call for CCN1CCC[C@H]1CNC(=O)c1c(O)c(Cl)cc(Cl)c1OC ?
inactive

Hi team, can someone confirm the assay call for CCN(Cc1ccncc1)C(=O)C(CO)c1ccccc1 (centres undefined) ?
inactive

Hi team, can someone confirm the assay call for CN(C)C(=O)Oc1ccc[n+](C)c1 ?
inactive

Hi team, can someone confirm the assay call for COc1cc(C(=O)OCCCN2CCCN(CCCOC(=O)c3cc(OC)c(OC)c(OC)c3)CC2)cc(OC)c1OC ?
active

Hi team, can someone confirm the assay call for CCO/C([O-])=N/c1c[n+](N2CCOCC2)no1 ?
inactive

Hi team, can someone confirm the assay call for CC(=O)OCC1=C(C(=O)O)N2C(=O)[C@@H](NC(=O)Cc3cccs3)[C@H]2SC1 ?
inactive

---

system: TAB113; test: qHTS profiling for inhibitors of Plasmodium falciparum proliferation (AID 504749); note: nearly all actives have a fitted effect of over 60% in size; details: P. falciparum in erythrocytes, SYBR Green DNA, 72 h; series mostly up to 28.7 µM
Results filed as inconclusive are left out. Active and inactive are the calls of the source. Calls come from the whole dose curve; as a rule, active = well fitted inhibition curve with a large enough effect; inconclusive = small, poorly fitted or top-dose-only effect; inactive = flat fitted curve, though single readings scatter.
Thanks in advance; please answer with one of these: yes (active), no (inactive)

As a guide, the following entries are already answered.
{"COMPOUND": "CC(N=C(NC#N)Nc1ccncc1)C(C)(C)C (centres undefined)", "CLASS LABEL": "no"}
{"COMPOUND": "NC(=O)c1cn(Cc2c(F)cccc2F)nn1", "CLASS LABEL": "no"}
{"COMPOUND": "OCCN1CCN(CC/C=C2/c3ccccc3Sc3ccc(C(F)(F)F)cc32)CC1", "CLASS LABEL": "yes"}
{"COMPOUND": "CC(=O)[C@@]1(O)CC[C@H]2[C@@H]3CCC4=CC(=O)CC[C@]4(C)[C@H]3CC[C@@]21C", "CLASS LABEL": "no"}

Hi team, can someone confirm the assay call for COc1ccc([C@@H]2Sc3ccccc3N(CCN(C)C)C(=O)[C@@H]2OC(C)=O)cc1 ?
no

Hi team, can someone confirm the assay call for COC(=O)C1=C(C)NC(C)=C(C(=O)OC(C)(C)CN(C)CCC(c2ccccc2)c2ccccc2)C1c1cccc([N+](=O)[O-])c1 (centres undefined) ?
yes

---

Tested on: CP335
Test: qHTS profiling for inhibitors of Plasmodium falciparum proliferation (AID 504749); note: nearly all actives have a fitted effect of over 60% in size; note: potency is the fitted concentration of half-maximal effect
Conditions: P. falciparum in erythrocytes, SYBR Green DNA, 72 h; series mostly up to 28.7 µM
Protocol: NIH National Institute of Allergy and Infectious Diseases [NIAID] NIH Chemical Genomics Center [NCGC] […] Because mature erythrocytes lack DNA, only Plasmodium-derived DNA is detected. NCGC Assay Protocol Summary: The SYBR Green viability assay was adapted from a method described previously (Plouffe et al., 2008). […] The following morning, fluorescence intensity at 485(14) nm excitation and 535(25) nm emission wavelengths was measured on an EnVision (Perkin Elmer) plate reader. […]
Inconclusive results are not listed. Calls of active or inactive are those of the source. Calls come from the whole dose curve; as a rule, active = well fitted inhibition curve with a large enough effect; inconclusive = small, poorly fitted or top-dose-only effect; inactive = flat fitted curve, though single readings scatter.
TEST READOUT: Potency

Solved cases below.
{"COMPOUND": "CC(=O)Nc1nnc(S(N)(=O)=O)s1", "TARGET OF ASSAY": "CP335", "TEST READOUT": "Potency", "TEST RESULT": "inactive"}
{"COMPOUND": "CCOC(=O)c1cnc2c(cnn2CC)c1NN=C(C)C", "TARGET OF ASSAY": "CP335", "TEST READOUT": "Potency", "TEST RESULT": "inactive"}
{"COMPOUND": "Nc1ncn([C@@H]2O[C@H](CO)[C@@H](O)[C@H]2O)c(=O)n1", "TARGET OF ASSAY": "CP335", "TEST READOUT": "Potency", "TEST RESULT": "inactive"}
{"COMPOUND": "CCN(CC)CCOCCOC(=O)C1(c2ccccc2)CCCC1", "TARGET OF ASSAY": "CP335", "TEST READOUT": "Potency", "TEST RESULT": "9.53 µM (active)"}

In plain terms, CCN(CC)CC(=O)Nc1c(C)cccc1C has a documented Potency of inactive

In plain terms, FC(F)(F)c1ccccc1-n1ccnc1 has a documented Potency of inactive

In plain terms, CN=C(NC#N)NCCSCc1nc[nH]c1C has a documented Potency of inactive

In plain terms, NC/C=C/C(=O)O has a documented Potency of inactive

In plain terms, NC(N)=NC(=O)Cc1c(Cl)cccc1Cl has a documented Potency of 9.53 µM (active)

In plain terms, NC(=O)N1c2ccccc2C=Cc2ccccc21 has a documented Potency of inactive

In plain terms, O=C(O)CCCCCCCC(=O)O has a documented Potency of inactive

In plain terms, CN(C(=O)CCCOc1ccc2[nH]c(=O)ccc2c1)C1CCCCC1 has a documented Potency of inactive

In plain terms, Cc1scc2c1N(C(=O)CN1CCN(C)CC1)c1ccccc1NC2=O has a documented Potency of inactive

In plain terms, COC(=O)[C@H]1[C@H]2C[C@@H]3c4[nH]c5cc(OC)ccc5c4CCN3C[C@H]2C[C@@H](OC(=O)c2cc(OC)c(OC)c(OC)c2)[C@@H]1OC has a documented Potency of 8.49 µM (active)

In plain terms, CCN(CC)CCNC(=O)c1cc(S(C)(=O)=O)ccc1OC has a documented Potency of inactive

In plain terms, CC(C(=O)O)c1ccc(CC2CCCC2=O)cc1 (configuration not stated) has a documented Potency of inactive

In plain terms, CCCC(C(=O)OCCN(CC)CC)(c1ccccc1)c1ccccc1 has a documented Potency of 8.49 µM (active)

In plain terms, O=C(CCCN1CCC(O)(c2cccc(C(F)(F)F)c2)CC1)c1ccc(F)cc1 has a documented Potency of 9.53 µM (active)

In plain terms, C[n+]1cc2c3c(ccc2c2ccc4cc5c(cc4c21)OCO5)OCO3 has a documented Potency of inactive

In plain terms, C#CCN(C)CCCOc1ccc(Cl)cc1Cl has a documented Potency of inactive

In plain terms, CCO/C([O-])=N/c1c[n+](N2CCOCC2)no1 has a documented Potency of inactive

---

assay: Primary qHTS for inhibitors of nuclear receptor binding SET domain protein 2 (NSD2) in an RCH-ACV wild type WT cells (2C) (AID 1645877); details: RCH-ACV (leukaemia line) NSD2 WT (2C) viability, CellTiter-Glo, 72 h; series mostly up to 44.9 µM; note: nearly all actives have a fitted effect of over 70% in size
Inconclusive results are not listed. Calls of active or inactive are those of the source. Calls come from the whole dose curve; as a rule, active = well fitted inhibition curve with a large enough effect; inconclusive = small, poorly fitted or top-dose-only effect; inactive = no such curve, though single readings can be large or run the other way.
Thanks in advance; please answer with one of these: active, inactive

{"COMPOUND": "CCN(CC)CCNC(=O)c1ccc(NC(C)=O)cc1", "CLASS LABEL": "inactive"}

Hi team, can someone confirm the assay call for C[C@@H](O)[C@H]1C(=O)N2C(C(=O)O)=C(SCCN=CN)C[C@H]12 ?
inactive

Hi team, can someone confirm the assay call for C(=C\c1ccccc1)/CN1CCN(C(c2ccccc2)c2ccccc2)CC1 ?
inactive

Hi team, can someone confirm the assay call for Nc1nc(N)c2nc(-c3ccccc3)c(N)nc2n1 ?
active

Hi team, can someone confirm the assay call for CN(C)CCCN1c2ccccc2Sc2ccc(C(F)(F)F)cc21 ?
active

Hi team, can someone confirm the assay call for CN1C(=O)CC[C@H]1c1cccnc1 ?
inactive

Hi team, can someone confirm the assay call for CCn1cc(C(=O)O)c(=O)c2cc3c(cc21)OCO3 ?
inactive

Hi team, can someone confirm the assay call for C[N+](C)(C)CCCCCCCCCC[N+](C)(C)C ?
inactive
